TARGET OR SYSTEM: SpBzz1-D1
RUN DESCRIPTION: SPOT peptide array binding signal intensity (averaged, normalized) (arbitrary units (background-subtracted, floor 0; scale differs between SH3 domains)); higher = stronger binding of the SH3 domain to the peptide
ASSAY METRIC: SPOT peptide array binding signal intensity
Give bare numbers.

Guide cases for SPOT peptide array binding signal intensity, answers given:
>>> df
            binder  experimental_result
0  RRARRQMGIPTISQV                  143
1  RKNRAPPQRPRFNRD                  853

Now consider a different binder.
Consider the binder shown here: `APERAVPILPPRNNV` What is its recorded SPOT peptide array binding signal intensity?
81

These measurements were taken from the supplement of paper PMC4466140.
